Here, each record is paired with measured IC50 data.
Tested on: MOLM-13 cells
assay: Cell viability assay (CellTiter-Glo) in MOLM-13 cells, alone or with gilteritinib
Type: cell-based
setup.conditions: Homo sapiens, MOLM-13, 72 h, MOLM-13 cells, compound alone (without gilteritinib), three days, CellTiter-Glo; read-out: MOLM-13 IC50
measured.property: IC50

>>> reported("Cc1nn(CCCCCCNc2ccc3c(c2)C(=O)N(C2CCC(=O)NC2=O)C3=O)c(C)c1-c1cnc2ccccc2n1 (centres unmarked)")
"> 1000 nM"
>>> reported("CN1CCCC(c2cn([C@H]3C[C@H](CNc4ccc5c(c4)C(=O)N(C4CCC(=O)NC4=O)C5=O)C3)nc2C2CC2)C1 (some centres unmarked)")
"> 1000 nM"
>>> reported("O=C1CCC(N2C(=O)c3ccc(NC[C@H]4C[C@H](n5cc(-c6nccc7cccnc67)c(C6CC6)n5)C4)cc3C2=O)C(=O)N1 (some centres unmarked)")
"< 10 nM"
>>> reported("O=C1CCC(N2Cc3ccc(CCCCC(=O)N4CCC(n5cc(-c6ccc7ccccc7n6)cn5)CC4)cc3C2=O)C(=O)N1 (centres unmarked)")
"> 1000 nM"
>>> reported("O=C(Cn1cc(-c2cnc3ccccc3n2)c(C2CC2)n1)NCc1ccc2c(c1)C(=O)N(C1CCC(=O)NC1=O)C2=O (centres unmarked)")
"100 to 1000 nM"

###

Here, each record is paired with measured IC50 data.
Test system: MOLM-13 cells
assay: Cell viability assay (CellTiter-Glo) in MOLM-13 cells, alone or with gilteritinib
Format: cell-based
setup.conditions: Homo sapiens, MOLM-13, 72 h, MOLM-13 cells, compound alone (without gilteritinib), three days, CellTiter-Glo; read-out: MOLM-13 IC50
measured.property: IC50

>>> reported("CN1CCN(c2cccc3nc(-c4cn([C@H]5C[C@H](CNc6ccc7c(c6)C(=O)N(C6CCC(=O)NC6=O)C7=O)C5)nc4C4CC4)cnc23)CC1 (some centres unmarked) [GS-267]")
"< 10 nM"
>>> reported("O=C1CCC(N2C(=O)c3ccc(NCCCc4cccc(-n5cc(-c6cnc7ccccc7n6)cn5)c4)cc3C2=O)C(=O)N1 (centres unmarked) [GS-365]")
"> 1000 nM"
>>> reported("O=C1CCC(N2C(=O)c3ccc(NCCCCCC(=O)N4CCC(n5cc(C6CCCCC6)cn5)CC4)cc3C2=O)C(=O)N1 (centres unmarked) [GS-049]")
"10 to 100 nM"
>>> reported("O=C1CCC(N2C(=O)c3ccc(NC[C@H]4C[C@H](n5nc(C6CC6)c6cccnc65)C4)cc3C2=O)C(=O)N1 (some centres unmarked) [GS-470]")
"10 to 100 nM"
>>> reported("CNc1ccnc(-c2cn([C@H]3C[C@H](CNc4ccc5c(c4)C(=O)N(C4CCC(=O)NC4=O)C5=O)C3)nc2C2CC2)c1 (some centres unmarked) [GS-306]")
"> 1000 nM"
>>> reported("O=C1CCC(N2Cc3cc(NCCCC4CC(n5cc(-c6cnc7ccccc7n6)cn5)C4)ccc3C2=O)C(=O)N1 (centres unmarked) [GS-140]")
"> 1000 nM"
>>> reported("O=C1CCC(N2C(=O)c3ccc(NC[C@H]4C[C@H](n5cc(-c6ccc7c(n6)CCCC7)c(C6CC6)n5)C4)cc3C2=O)C(=O)N1 (some centres unmarked) [GS-308]")
"10 to 100 nM"
>>> reported("O=C(CNc1cccc(N2CCC(n3cc(-c4cnc5ccccc5n4)cn3)CC2)c1)NCc1scc2c1CN(C1CCC(=O)NC1=O)C2=O (centres unmarked) [GS-087]")
"< 10 nM"
>>> reported("O=C1CCC(N2C(=O)c3ccc(NCCCCCCn4nc(C(F)(F)F)c(-c5cnc6ccccc6n5)c4C(F)(F)F)cc3C2=O)C(=O)N1 (centres unmarked) [GS-554]")
"> 1000 nM"
>>> reported("O=C1CCC(N2C(=O)c3ccc(NC[C@H]4C[C@H](n5nc(C6CC6)c6ccccc65)C4)cc3C2=O)C(=O)N1 (some centres unmarked) [GS-442]")
"10 to 100 nM"
>>> reported("O=C1CCC(N2C(=O)c3ccc(NC[C@H]4C[C@H](n5cc(-c6cnc7ccccc7n6)c(C6CC6)n5)C4)cc3C2=O)C(=O)N1 (some centres unmarked) [GS-579]")
"< 10 nM"
>>> reported("CN1C[C@H]2C[C@@H]1CN2c1ccc2ncc(-c3cnn([C@H]4C[C@H](CCCNc5ccc6c(c5)C(=O)N(C5CCC(=O)NC5=O)C6=O)C4)c3)nc2c1 (some centres unmarked) [GS-411]")
"> 1000 nM"
>>> reported("CN1CCN(c2cccc3ncc(-c4cnn(C5CC(CNc6ccc7c(c6)C(=O)N(C6CCC(=O)NC6=O)C7=O)C5)c4)nc23)CC1 (centres unmarked) [GS-398]")
"> 1000 nM"
>>> reported("O=C1CCC(N2C(=O)c3ccc(NCCCCCC(=O)N4CCC(n5cc(N6CCCCC6)cn5)CC4)cc3C2=O)C(=O)N1 (centres unmarked) [GS-048]")
"100 to 1000 nM"
>>> reported("O=C1CCC(N2C(=O)c3ccc(NCCC[C@H]4C[C@@H](n5cc(-c6cnc7ccc(NC8CCNCC8)cc7n6)cn5)C4)cc3C2=O)C(=O)N1 (some centres unmarked) [GS-214]")
"> 1000 nM"
>>> reported("O=C(CCC(F)(F)C(=O)N1CCC(n2cc(-c3cnc4cccc(Br)c4n3)cn2)CC1)NCc1ccc2c(c1)CN(C1CCC(=O)NC1=O)C2=O (centres unmarked) [GS-054]")
"10 to 100 nM"
>>> reported("O=C1CCC(N2C(=O)c3ccc(NC[C@H]4C[C@H](n5cc(-c6ncccc6C(F)(F)F)c(C6CC6)n5)C4)cc3C2=O)C(=O)N1 (some centres unmarked) [GS-277]")
"< 10 nM"
>>> reported("O=C1CCC(N2C(=O)c3ccc(NC[C@H]4C[C@H](n5cc(-c6cccc(NC7COC7)n6)c(C6CC6)n5)C4)cc3C2=O)C(=O)N1 (some centres unmarked) [GS-260]")
"100 to 1000 nM"
>>> reported("Cc1nn(CCCCCCNc2ccc3c(c2)C(=O)N(C2CCC(=O)NC2=O)C3=O)cc1-c1cnc2ccccc2n1 (centres unmarked) [GS-534]")
"10 to 100 nM"
>>> reported("Cc1cccnc1-c1cn([C@H]2C[C@H](CNc3ccc4c(c3)C(=O)N(C3CCC(=O)NC3=O)C4=O)C2)nc1C1CC1 (some centres unmarked) [GS-261]")
"< 10 nM"

###

Test system: MOLM-13 cells
assay: Cell viability assay (CellTiter-Glo) in MOLM-13 cells, alone or with gilteritinib
Format: cell-based
setup.conditions: Homo sapiens, MOLM-13, 72 h, MOLM-13 cells, compound alone (without gilteritinib), three days, CellTiter-Glo; read-out: MOLM-13 IC50
measured.property: IC50

>>> reported("O=C1CCC(N2C(=O)c3ccc(NCCC[C@H]4C[C@H](n5cc(-c6cnc7ccc(N8CCNCC8)cc7n6)cn5)C4)cc3C2=O)C(=O)N1 (stereo partly drawn)")
"100 to 1000 nM"
>>> reported("O=C1CCC(N2C(=O)c3ccc(NCCCCCC(=O)N4CCC(n5cc(-c6cnc7ccc(C8=CCNCC8)cc7n6)cn5)CC4)cc3C2=O)C(=O)N1 (stereo not drawn)")
"10 to 100 nM"
>>> reported("O=C1CCC(N2C(=O)c3ccc(NCC4CC(n5cc(-c6cnc7ccccc7n6)cn5)C4)cc3C2=O)C(=O)N1 (stereo not drawn)")
"100 to 1000 nM"
>>> reported("O=C1CCC(N2C(=O)c3ccc(NCCCCCCn4nccc4-c4cnc5ccccc5n4)cc3C2=O)C(=O)N1 (stereo not drawn)")
"> 1000 nM"
>>> reported("O=C1CCC(N2C(=O)c3ccc(NCCCC4(C(=O)N5CCC(n6cc(-c7cnc8ccccc8n7)cn6)CC5)CC4)cc3C2=O)C(=O)N1 (stereo not drawn)")
"> 1000 nM"
>>> reported("O=C1CCC(N2C(=O)c3ccc(NC[C@H]4C[C@H](n5cc(-c6cccc(NC7CCC7)n6)c(C6CC6)n5)C4)cc3C2=O)C(=O)N1 (stereo partly drawn)")
"> 1000 nM"
>>> reported("O=C1CCC(N2Cc3c(NC4CCCC(CCCn5cc(-c6cnc7ccccc7n6)cn5)C4)cccc3C2=O)C(=O)N1 (stereo not drawn)")
"> 1000 nM"
>>> reported("Cc1cccnc1-c1cnn([C@H]2C[C@H](CCCNc3ccc4c(c3)C(=O)N(C3CCC(=O)NC3=O)C4=O)C2)c1 (stereo partly drawn)")
"100 to 1000 nM"
>>> reported("CN(C)c1ccc(-c2cn([C@H]3C[C@H](CNc4ccc5c(c4)C(=O)N(C4CCC(=O)NC4=O)C5=O)C3)nc2C2CC2)nc1 (stereo partly drawn)")
"100 to 1000 nM"
>>> reported("O=C1CCC(N2C(=O)c3ccc(NC[C@H]4C[C@H](n5cc(-c6cnc7ccc(N8CCOCC8)cc7n6)c(C6CC6)n5)C4)cc3C2=O)C(=O)N1 (stereo partly drawn)")
"< 10 nM"
>>> reported("O=C1CCC(N2C(=O)c3ccc(NC[C@H]4C[C@H](n5cc(-c6cc(NC7CCNCC7)ccn6)c(C6CC6)n5)C4)cc3C2=O)C(=O)N1 (stereo partly drawn)")
"> 1000 nM"
>>> reported("O=C1CCC(N2C(=O)c3ccc(NCCC[C@H]4C[C@H](n5cc(-c6cnc7ccc(N8CC9CCC(C8)N9)cc7n6)cn5)C4)cc3C2=O)C(=O)N1 (stereo partly drawn)")
"100 to 1000 nM"
>>> reported("O=C1CCC(N2C(=O)c3ccc(NCCC[C@H]4C[C@H](n5cc(-c6ncccc6Cl)cn5)C4)cc3C2=O)C(=O)N1 (stereo partly drawn)")
"> 1000 nM"
>>> reported("O=C1CCC(N2C(=O)c3ccc(NCCCCC(F)(F)C(=O)N4CCC(n5cc(-c6cnc7ccccc7n6)cn5)CC4)cc3C2=O)C(=O)N1 (stereo not drawn)")
"< 10 nM"
>>> reported("CN1CCC(Nc2cccnc2-c2cn([C@H]3C[C@H](CNc4ccc5c(c4)C(=O)N(C4CCC(=O)NC4=O)C5=O)C3)nc2C2CC2)CC1 (stereo partly drawn)")
"> 1000 nM"
>>> reported("O=C1CCC(N2C(=O)c3ccc(NCCC[C@H]4C[C@H](n5cc(-c6nccc7cccnc67)c(C6CC6)n5)C4)cc3C2=O)C(=O)N1 (stereo partly drawn)")
"100 to 1000 nM"
>>> reported("O=C1CCC(N2Cc3cc(NCCCCCCn4cc(-c5cnc6ccccc6n5)cn4)ccc3C2=O)C(=O)N1 (stereo not drawn)")
"> 1000 nM"
>>> reported("CN1CCC(c2ccc3nc(-c4cnn([C@H]5C[C@H](CCCNc6ccc7c(c6)C(=O)N(C6CCC(=O)NC6=O)C7=O)C5)c4)cnc3c2)CC1 (stereo partly drawn)")
"10 to 100 nM"

These entries and their values trace back to patent US20240050428A1.
